MEASURE NAME: IC50

**Query** Hello, I am looking for reported IC50 with PARP1 (Homo sapiens (Human)) for CNC(=O)c1ccc(N2CCN(Cc3cc4c5c(c3)c(F)nn5[C@@H](C)C(=O)N4)CC2)c(F)n1 [Compound 49-1] . Could you help?
**Result** 1 to 3 nM

**Query** Hello, I am looking for reported IC50 with PARP1 (Homo sapiens (Human)) for CNC(=O)c1ccc(N2CCN(Cc3cc4c5c(ccn5C(C)(C)C(=O)N4)c3)CC2)c(F)n1 [Compound 46] . Could you help?
**Result** 3 to 10 nM

* * *

SYSTEM TESTED: PARP2 (Homo sapiens (Human))
Sequence (Q9UGN5 whole entry): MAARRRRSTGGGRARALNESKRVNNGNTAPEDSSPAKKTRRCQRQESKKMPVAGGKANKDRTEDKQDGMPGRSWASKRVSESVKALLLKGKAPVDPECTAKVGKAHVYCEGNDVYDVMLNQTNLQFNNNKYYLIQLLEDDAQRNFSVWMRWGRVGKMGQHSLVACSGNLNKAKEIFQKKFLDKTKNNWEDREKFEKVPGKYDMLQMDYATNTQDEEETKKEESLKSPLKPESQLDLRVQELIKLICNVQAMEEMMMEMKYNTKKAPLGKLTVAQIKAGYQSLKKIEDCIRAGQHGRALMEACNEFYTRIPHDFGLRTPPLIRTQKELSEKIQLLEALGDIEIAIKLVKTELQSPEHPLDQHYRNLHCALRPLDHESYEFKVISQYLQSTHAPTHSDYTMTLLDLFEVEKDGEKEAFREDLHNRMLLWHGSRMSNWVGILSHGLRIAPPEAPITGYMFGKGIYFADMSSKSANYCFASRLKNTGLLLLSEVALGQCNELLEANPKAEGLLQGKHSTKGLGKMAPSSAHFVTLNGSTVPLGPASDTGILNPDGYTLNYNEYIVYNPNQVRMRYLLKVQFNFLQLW
pIC50: −log10 of the molar value.
Answer each item with its documented pIC50.

**Query** Field request: pIC50 | item: CNC(=O)c1ccc(N2CCN(Cc3cc4c5c(c3)c(F)nn5[C@H](C)C(=O)N4)CC2)c(F)n1
**Result** 6.00 to 7.00

**Query** Field request: pIC50 | item: CNC(=O)c1ccc(N2CCN(Cc3cc4c5c(c3)c(F)nn5[C@@H](C)C(=O)N4)CC2)c(F)n1
**Result** 6.00 to 7.00
